test system: DU145; assay: Cell proliferation Ex.3; format: cell-based; details: Homo sapiens, DU-145; DU145, 72 h
pIC50: −log10 of the molar value.
PARAMETER: pIC50

(Q) Annotate the compound `C#C[C@]1(CO)O[C@@H](n2cc(F)c(N)nc2=O)C[C@@H]1O` with its measured pIC50.
(A) < 5.00

====

system: cancer cell lines; assay: Cancer cell proliferation activity of representative nucleosides, CellTiterGlo 72 h (Example 7, Tables 8 and 9); type: cell-based; settings: Homo sapiens, SK-MEL-28, 72 h, SKMEL28, skin, 72 h
PARAMETER: IC50

Here's what some known entries look like.
MOLECULE	TARGET SYSTEM	REPORTED VALUE
N#C[C@]1(CO)O[C@@H](n2ccc(N)nc2=O)C[C@@H]1O [compound 29]	cancer cell lines	2.63 µM
C#C[C@]1(CO)O[C@@H](n2ccc(N)nc2=O)C[C@@H]1O [compound 7]	cancer cell lines	> 50 µM

(Q) Annotate the molecule C#C[C@]1(CO)O[C@@H](n2cc(F)c(N)nc2=O)C[C@@H]1O [compound 9] with its measured IC50.
(A) > 50 µM

====

test system: COLO678; test: Cell proliferation Ex.3; format: cell-based; settings: Homo sapiens, COLO-678; COLO678, 72 h
PARAMETER: IC50

(Q) Annotate the compound C#C[C@]1(CO)O[C@@H](n2cc(F)c(N)nc2=O)C[C@@H]1O [compound 9] with its measured IC50.
(A) > 10 µM

====

tested on: 22RV1; test: Cell proliferation Ex.3; type: cell-based; conditions: Homo sapiens, 22Rv1, 72 h
PARAMETER: pIC50
pIC50 is a log-scale quantity: -log10 of the concentration expressed in molar.

(Q) Annotate the compound `C#C[C@]1(CO)O[C@@H](n2cc(F)c(N)nc2=O)C[C@@H]1O` with its measured pIC50.
(A) 5.42

====

tested on: SKBR3; test: Cell proliferation Ex.3; type: cell-based; details: Homo sapiens, SK-BR-3; SKBR3, 120 h
PARAMETER: pIC50
pIC50 is a log-scale quantity: -log10 of the concentration expressed in molar.

(Q) Annotate the compound C#C[C@]1(CO)O[C@@H](n2cc(F)c(N)nc2=O)C[C@@H]1O [compound 9] with its measured pIC50.
(A) 6.02

====

test system: DU145; assay: Cell proliferation Ex.3; assay type: cell-based; conditions: Homo sapiens, DU-145; DU145, 120 h
PARAMETER: IC50

(Q) Annotate the molecule `C#C[C@]1(CO)O[C@@H](n2cc(F)c(N)nc2=O)C[C@@H]1O` with its measured IC50.
(A) > 10 µM

====

Tested on: Caki-1
Test: Cell proliferation CellTiterGlo Ex.2
Assay type: cell-based
Settings: Homo sapiens; Caki-1 (Kidney), 72 h
Method: A dose response relationship on cell proliferation was assessed for Compound 13 on 140 tumor cell lines. […] Cells were cultured in the appropriate media. […] After incubation for 72 h at 37° C. at 5% or 10% CO2 dependent on the medium, cell plates were equilibrated to room temperature for one hour, CellTiterGlo reagent (Promega) was added and luminescence was measured approximately an hour later using a luminometer. […]
PARAMETER: IC50 (µM)
Kindly provide the numeric value in µM only, without the unit symbol.

(Q) Annotate the compound `C#C[C@]1(CO)O[C@@H](n2cnc3c(=O)[nH]c(N)nc32)C[C@@H]1O` with its measured IC50.
(A) 9.76
